cond: 303.15 K; 101.33 kPa; Liquid; Vibrating tube method
metric.name: mass density (kg/m3)
Only the number, expressed in kg/m3, is required.

Worked examples follow.
>>> observed_value("Cc1ccccc1C")
871.7
>>> observed_value("Cc1ccccc1")
857.51
>>> observed_value("C1CCOCC1 [tetrahydropyran]")
873.99
>>> observed_value("c1ccccc1")
868.2

-- ask Item Cc1ccccc1Cl has what recorded mass density?
-- reply 1072.5

* * *

cond: 303.15 K; 101.33 kPa; Liquid; Sing-around technique in a fixed-path interferometer
Listed next: entries and their corresponding speed of sound.
I only need the number, in m/s, no unit after it.

>>> observed_value("Cc1ccccc1Cl")
1280.7
>>> observed_value("Cc1ccccc1C")
1326.2
>>> observed_value("C1CCOCC1 [tetrahydropyran]")
1246.8
>>> observed_value("c1ccccc1")
1276.1

Then this compound:
-- ask Entry Cc1ccccc1 has what speed of sound?
-- reply 1283.2
